# Test system: Escherichia coli
# ASSAY_METHOD_TEXT: Antibacterial activity against Escherichia coli KAM3 harboring acrB deletion mutant after 16 to 20 hrs by agar dilution method
# Type: functional
hey, just use Y if measured MIC is less than 0.2 µg/mL, otherwise N

• O=C(NO)[C@@H]1CN(c2ccc(C#CC#CC3CC3)c(F)c2)C(=O)O1 = Y
• C[C@@H](O)[C@H](NC(=O)c1ccc(C#Cc2ccc(CN3CCOCC3)cc2)cc1)C(=O)NO = Y
• O=C(NO)[C@@H]1CN(c2ccc(C#Cc3ccc(CN4CCOCC4)cc3)cc2)C(=O)N1 = N
• COc1cc(C#CC#CC2CC2)ccc1N1C[C@@H](C(=O)NO)OC1=O = N
• O=C(NO)[C@@H]1CN(c2ccc(C#CC#CCCCO)cc2)C(=O)O1 = Y
• O=C(NO)c1ccc(=O)n(-c2ccc(C#Cc3ccc(CN4CCOCC4)cc3)cc2)c1 = N
• O=C(NO)[C@@H]1CN(c2ccc(C#CC#CCCO)cc2)C(=O)O1 = Y
• O=C(NO)[C@@H]1CN(c2ccc(C#CC#CC3CC3)c([N+](=O)[O-])c2)C(=O)O1 = N
• O=C(NO)[C@@H]1CN(c2ccc(C#CC#CC3CC3)cc2)C(=O)O1 = Y
• O=C(NO)[C@@H]1CN(c2ccc(C#Cc3ccc(CN4CCOCC4)cc3)cc2)C(=O)CO1 = N
• O=C(NO)[C@H]1CN(c2ccc(C#Cc3ccc(CN4CCOCC4)cc3)cc2)C(=O)O1 = Y
• O=C(NO)[C@@H]1CN(c2ccc(C#CC#CC3CC3)cc2F)C(=O)O1 = N
• O=C(NO)[C@@H]1CN(c2ccc(C#CC#C[C@H]3C[C@@H]3CO)cc2)C(=O)O1 (mixture of isomers) = Y
• Nc1cc(N2C[C@@H](C(=O)NO)OC2=O)ccc1C#CC#CC1CC1 = Y
• O=C(NO)[C@@H]1CN(c2ccc(C#Cc3ccc(CN4CCOCC4)cc3)cc2)C(=O)O1 = Y

====

# TARGET_ENTITY: UDP-3-O-acyl-N-acetylglucosamine deacetylase (Escherichia coli K-12, UniProt P0A725)
# Sequence (P0A725 whole entry): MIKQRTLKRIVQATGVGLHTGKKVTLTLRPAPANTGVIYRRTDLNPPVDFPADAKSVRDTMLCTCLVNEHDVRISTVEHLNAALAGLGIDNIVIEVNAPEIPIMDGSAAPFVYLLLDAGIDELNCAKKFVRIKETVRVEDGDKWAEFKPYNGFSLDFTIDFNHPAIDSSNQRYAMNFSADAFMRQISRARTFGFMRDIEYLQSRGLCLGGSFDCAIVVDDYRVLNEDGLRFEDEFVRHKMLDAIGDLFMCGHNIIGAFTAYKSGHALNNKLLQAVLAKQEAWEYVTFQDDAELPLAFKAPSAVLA
pIC50: −log10 of the molar value.
OUTCOME_MEASURE: pIC50

* O=C(NO)[C@@H]1CN(c2ccc(C#Cc3ccc(CN4CCOCC4)cc3)cc2)C(=O)N1 | 6.15
* O=C(NO)[C@@H]1CN(c2ccc(C#CC#CC3CC3)c(F)c2)C(=O)O1 | 8.22
* O=C(NO)c1ccc(=O)n(-c2ccc(C#Cc3ccc(CN4CCOCC4)cc3)cc2)c1 | 6.00
* Nc1cc(N2C[C@@H](C(=O)NO)OC2=O)ccc1C#CC#CC1CC1 | 6.57
* O=C(NO)[C@@H]1CN(c2ccc(C#CC#CCCCO)cc2)C(=O)O1 | 7.24
* O=C(NO)[C@@H]1CN(c2ccc(C#Cc3ccc(CN4CCOCC4)cc3)cc2)C(=O)O1 | 6.89
* O=C(NO)[C@@H]1CN(c2ccc(C#CC#CC3CC3)cc2F)C(=O)O1 | 6.70
* O=C(NO)[C@H]1CN(c2ccc(C#Cc3ccc(CN4CCOCC4)cc3)cc2)C(=O)O1 | 6.59
* COc1cc(C#CC#CC2CC2)ccc1N1C[C@@H](C(=O)NO)OC1=O | 5.70
* O=C(NO)[C@@H]1CN(c2ccc(C#Cc3ccc(CN4CCOCC4)cc3)cc2)C(=O)CO1 | 6.29
* O=C(NO)[C@@H]1CN(c2ccc(C#CC#CC3CC3)c([N+](=O)[O-])c2)C(=O)O1 | 7.57
* O=C(NO)[C@@H]1CN(c2ccc(C#CC#CC3CC3)cc2)C(=O)O1 | 7.74
* O=C(NO)[C@@H]1CN(c2ccc(C#CC#C[C@H]3C[C@@H]3CO)cc2)C(=O)O1 (mixture of isomers) | 7.70
* O=C(NO)[C@@H]1CN(c2ccc(C#CC#CCCO)cc2)C(=O)O1 | 6.85
